system: M14 melanoma; assay: NCI-60 one-dose screen, 48 h; details: 10 µM unless noted
Compounds without any hit were thinned out: in the full panel of roughly 83,000, 20% have a hit. Activity calls are given as the source filed them. Rule for the calls: active = growth percent below 10; inactive = the rest.
Pick one and only one: active, inactive

# compound, discrete-label
data = [
    ("COc1cc(C)cc2oc3oc(=O)c(-c4nc5ccccc5s4)cc3c(=O)c12", "inactive"),
    ("CC(C)C1=NOC(=O)C1=Cc1cn(-c2ccccc2)nc1-c1ccccc1", "inactive"),
    ("O=[N+]([O-])c1cc([N+](=O)[O-])c(NN=C(c2ccc(O)cc2)c2ccc(O)cc2)cc1Cl", "active"),
    ("O=C(CCCCCCSc1nc(-c2ccc(Cl)cc2)cc(-c2ccc(Cl)cc2)n1)NO", "inactive"),
    ("N=C(N)c1ccc(-c2ccc(-c3ccc(-c4cccs4)s3)s2)cc1F", "inactive"),
    ("CC1Cc2c(Cl)ncnc2N(C)c2ccccc21 (centres undefined)", "inactive"),
    ("CCn1cc(-c2cc(-c3ccc(Cl)cc3)nc(N)n2)c(-c2ccc(Br)cc2)n1", "inactive"),
    ("CCCC[C@@H](C=O)NC(=O)[C@H](CC(C)C)NC(=O)[C@H](CC(C)C)NC(=O)OCc1ccccc1", "active"),
    ("CCc1cccc(Cl)c1", "inactive"),
    ("O=C1NC(=O)C(Cc2ccc(OCc3ccc(-c4cc(F)c(F)c(F)c4)cc3)cc2)S1 (centres undefined)", "inactive"),
]

Name the outcome recorded for Cn1cc(-c2noc(-c3cn(C)c4ncc(F)cc34)n2)c2cc(Br)ccc21 in the assay.
inactive

Name the outcome recorded for COc1cc(-c2nc(SCCC(C)C)nc(Nc3ccccc3)c2C#N)cc(OC)c1OC in the assay.
inactive

Name the outcome recorded for COc1ccc2c(c1)c(-c1noc(C(=O)c3cn(C)c4ncc(Br)cc34)n1)cn2C in the assay.
inactive

Name the outcome recorded for CC1(C)CC[C@]23CC[C@]4(C)[C@H](CC[C@@H]5[C@@]6(C)C/C(=C/c7ccncc7)C(=O)C(C)(C)[C@@H]6CC[C@]54C)[C@H]2[C@H]1OC3=O in the assay.
inactive

Name the outcome recorded for COc1ccc2nc3c(cc2c1)C(=O)CC(c1ccccc1)C3 (centres undefined) in the assay.
active

Name the outcome recorded for O=C(O)c1cccc(CN2CCN(c3cc4c(cc3F)c(=O)c(C(=O)O)cn4C3CC3)CC2)c1O in the assay.
inactive

Name the outcome recorded for Cn1cc(-c2nnc(-c3cn(C)c4ncc(Br)cc34)o2)c2ccccc21 in the assay.
inactive

Name the outcome recorded for COC(=O)[C@@H](NC(=O)NC(=O)NC(=O)CI)C(C)C in the assay.
inactive

Name the outcome recorded for CC1(C)CC[C@]23CC[C@]4(C)[C@H](CC[C@@H]5[C@@]6(C)C/C(=C/c7cccnc7)C(=O)C(C)(C)[C@@H]6CC[C@]54C)[C@H]2[C@H]1OC3=O in the assay.
inactive

* * *

system: PC-3 prostate; experiment: NCI-60 one-dose screen, 48 h; settings: 10 µM unless noted
This is part of a sample that, as a whole, favours compounds with a hit. Of some 83,000 tested, about 20% had one in any assay. Calls of active or inactive are those of the source. How the source made its calls: active means growth percent below 10; inactive means the rest.
Pick one and only one: label 1 (active), label 0 (inactive)

Consider the following illustrative entries.
# molecule, discrete-label
data = [
    ("Cc1cc(C)nc(SCC(=O)Nc2cccc(N=Cc3ccccc3O)c2)n1", "label 0"),
    ("Cn1ncc2c(Nc3ccc(O)cc3)nc(Cl)nc21", "label 0"),
    ("C=C(C)[C@@H]1CC[C@]2(C(N)=O)CC[C@]3(C)[C@H](CC[C@@H]4[C@@]5(C)C/C(=C/c6cccnc6)C(=O)C(C)(C)[C@@H]5CC[C@]43C)[C@@H]12", "label 0"),
    ("CCCCCCCCCCCCCC[n+]1cccc(C(N)=O)c1", "label 1"),
    ("N#Cc1c(N2CCOCC2)nc(=S)[nH]c1-c1ccco1", "label 0"),
    ("N#Cc1ccc(-c2ccc(COc3ccc(CC4SC(=O)NC4=O)cc3)cc2)cc1 (stereo not given)", "label 0"),
    ("Cc1ccc(-c2cc(O)c(-c3ccc(C)cc3C)cc2O)c(C)c1", "label 0"),
    ("CC(C)C1=NOC(=O)C1=Cc1cn(-c2ccccc2)nc1-c1ccccc1", "label 0"),
]

Could you now consider this next molecule?
Name the outcome recorded for COc1ncnc2c(-c3ccccc3)cn(COCc3ccccc3)c12 in the assay.
label 0
